- System: 14 cell lines (MLL-r or MLL-PTD)
- method-description: Cell proliferation in 14 cell lines
- Type: cell-based
- cond: least sensitive of 14 cell lines; read-out: cell proliferation IC50, upper end of range
parameter-measured: IC50

Exercise: Quick one: IC50 for CC(C)N(C[C@H]1O[C@@H](n2cnc3c(N)ncnc32)[C@H](O)[C@@H]1O)[C@H]1C[C@@H](CCc2nc3cc(C(C)(C)C)ccc3[nH]2)C1 ?
Solution: > 10 µM

Recorded values, source patent US20200009176A1.
